tested on: 299254-011-R-J1-PDC complex spheroid viability; experiment: Anticancer human tumor 299254-011-R-J1-PDC patient-derived melanoma cell line growth inhibition [POLQ]; details: second compound 0.0316 µM; first compound 0.316 µM; stronger effect = lower value
Mark Condition met for viability, T/C under 90%, Condition not met if at or over.

Molecule	Cat
CC1COCCN1c1cc(C2(S(C)(=N)=O)CC2)nc(-c2ccnc3[nH]ccc23)n1 (stereo unspecified) + Cc1cccc(N(C)C(=O)C2C(O)CCN2c2nc(C)cc(C(F)(F)F)c2C#N)c1	Condition met
CCc1cc2c(N3CCc4c(cc(Cn5ccnc5)cc4-c4cn(C)nc4C(F)(F)F)C3=O)ccnc2c(OC)n1 + Cc1cccc(N(C)C(=O)C2C(O)CCN2c2nc(C)cc(C(F)(F)F)c2C#N)c1	Condition not met
CC1COCCN1c1cc(C2(O)CC3CCC(C2)O3)c2cnn(-c3ccn[nH]3)c2n1 (stereo unspecified) + COC1C(OC(N)=O)C(O)C(Oc2ccc3c(O)c(NC(=O)c4ccc(O)c(CC=C(C)C)c4)c(=O)oc3c2C)OC1(C)C	Condition met
COc1cc2cc(C(=O)CCC(=O)O)sc2cc1OC + Cc1cccc(N(C)C(=O)C2C(O)CCN2c2nc(C)cc(C(F)(F)F)c2C#N)c1	Condition not met
O=C(c1cc(Cc2n[nH]c(=O)c3ccccc23)ccc1F)N1CCN(C(=O)C2CC2)CC1 + COC1C(OC(N)=O)C(O)C(Oc2ccc3c(O)c(NC(=O)c4ccc(O)c(CC=C(C)C)c4)c(=O)oc3c2C)OC1(C)C	Condition not met
CC(C)n1c(=O)n(C)c2cnc3cc(F)c(-c4ccc(OCCCN5CCCCC5)nc4)cc3c21 + Nc1ccc(C#CCN(C(=O)Cc2ncc(C(F)(F)F)cc2C(F)(F)F)c2ccc(F)cc2)nn1	Condition not met
COc1cc(C2c3cc4c(cc3C(OC3OC5COC(C)OC5C(O)C3O)C3COC(=O)C23)OCO4)cc(OC)c1O (stereo unspecified) + COC1C(OC(N)=O)C(O)C(Oc2ccc3c(O)c(NC(=O)c4ccc(O)c(CC=C(C)C)c4)c(=O)oc3c2C)OC1(C)C	Condition not met
C#Cc1c(F)ccc2cc(O)cc(-c3ncc4c(N5CC6CCC(C5)N6)nc(OCC56CCCN5CC(F)C6)nc4c3F)c12 (stereo unspecified) + Cc1cccc(N(C)C(=O)C2C(O)CCN2c2nc(C)cc(C(F)(F)F)c2C#N)c1	Condition not met
Nc1ccn(C2OC(CO)C(O)C2(F)F)c(=O)n1 (stereo unspecified) + Nc1ccc(C#CCN(C(=O)Cc2ncc(C(F)(F)F)cc2C(F)(F)F)c2ccc(F)cc2)nn1	Condition met
COc1ccc([C@@H](O)c2cc(-c3ncnc4cc(N5CCOCC5)ccc34)c(F)cc2Cl)nn1 + COC1C(OC(N)=O)C(O)C(Oc2ccc3c(O)c(NC(=O)c4ccc(O)c(CC=C(C)C)c4)c(=O)oc3c2C)OC1(C)C	Condition not met
CC(C)n1c(=O)n(C)c2cnc3cc(F)c(-c4ccc(OCCCN5CCCCC5)nc4)cc3c21 + Cc1cccc(N(C)C(=O)C2C(O)CCN2c2nc(C)cc(C(F)(F)F)c2C#N)c1	Condition met
CCc1c2c(nc3ccc(O)cc13)-c1cc3c(c(=O)n1C2)COC(=O)[C@]3(O)CC + Cc1cccc(N(C)C(=O)C2C(O)CCN2c2nc(C)cc(C(F)(F)F)c2C#N)c1	Condition met
CCc1cc2c(N3CCc4c(cc(Cn5ccnc5)cc4-c4cn(C)nc4C(F)(F)F)C3=O)cc(C)nc2c(OC)n1 + Cc1cccc(N(C)C(=O)C2C(O)CCN2c2nc(C)cc(C(F)(F)F)c2C#N)c1	Condition not met
CC1COCCN1c1cc(-c2ccnn2C)c2ccnc(-c3ccn[nH]3)c2n1 (stereo unspecified) + COC1C(OC(N)=O)C(O)C(Oc2ccc3c(O)c(NC(=O)c4ccc(O)c(CC=C(C)C)c4)c(=O)oc3c2C)OC1(C)C	Condition met
COc1ccc([C@@H](O)c2cc(-c3ncnc4cc(N5CCOCC5)ccc34)c(F)cc2Cl)nn1 + Cc1cccc(N(C)C(=O)C2C(O)CCN2c2nc(C)cc(C(F)(F)F)c2C#N)c1	Condition not met
CCc1c2c(nc3ccc(O)cc13)-c1cc3c(c(=O)n1C2)COC(=O)[C@]3(O)CC + COC1C(OC(N)=O)C(O)C(Oc2ccc3c(O)c(NC(=O)c4ccc(O)c(CC=C(C)C)c4)c(=O)oc3c2C)OC1(C)C	Condition met
Nc1ccn(C2OC(CO)C(O)C2(F)F)c(=O)n1 (stereo unspecified) + COC1C(OC(N)=O)C(O)C(Oc2ccc3c(O)c(NC(=O)c4ccc(O)c(CC=C(C)C)c4)c(=O)oc3c2C)OC1(C)C	Condition met
CCc1cc2c(N3CCc4c(cc(Cn5ccnc5)cc4-c4cn(C)nc4C(F)(F)F)C3=O)ccnc2c(OC)n1 + Nc1ccc(C#CCN(C(=O)Cc2ncc(C(F)(F)F)cc2C(F)(F)F)c2ccc(F)cc2)nn1	Condition not met
COc1cccc2c1C(=O)c1c(O)c3c(c(O)c1C2=O)CC(O)(C(=O)CO)CC3OC1CC(N)C(O)C(C)O1 (stereo unspecified) + Cc1cccc(N(C)C(=O)C2C(O)CCN2c2nc(C)cc(C(F)(F)F)c2C#N)c1	Condition met
CNCc1ccc(-c2[nH]c3cc(F)cc4c3c2CCNC4=O)cc1 + Cc1cccc(N(C)C(=O)C2C(O)CCN2c2nc(C)cc(C(F)(F)F)c2C#N)c1	Condition not met
O=c1[nH]cc(F)c(=O)[nH]1 + Nc1ccc(C#CCN(C(=O)Cc2ncc(C(F)(F)F)cc2C(F)(F)F)c2ccc(F)cc2)nn1	Condition not met

* * *

system: 299254-011-R-J1-PDC complex spheroid viability; experiment: Anticancer human tumor 299254-011-R-J1-PDC cell line growth inhibition [POLQ]; conditions: second compound 0.1 µM; first compound 1 µM; stronger effect = lower value;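 further: spheroids exposed to drugs for one week before measurement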;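 on viability, T/C: percent viability relative to DMSO vehicle control taken as 100%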
Entries whose viability, T/C is below 80% take 1.0; entries at or above 80% take 0.0.

Compound	Cat
CCc1c2c(nc3ccc(O)cc13)-c1cc3c(c(=O)n1C2)COC(=O)[C@]3(O)CC + Cc1cccc(N(C)C(=O)C2C(O)CCN2c2nc(C)cc(C(F)(F)F)c2C#N)c1	1.0
C#Cc1c(F)ccc2cc(O)cc(-c3ncc4c(N5CC6CCC(C5)N6)nc(OCC56CCCN5CC(F)C6)nc4c3F)c12 (stereo not given) + COC1C(OC(N)=O)C(O)C(Oc2ccc3c(O)c(NC(=O)c4ccc(O)c(CC=C(C)C)c4)c(=O)oc3c2C)OC1(C)C	0.0
CC1COCCN1c1cc(-c2ccnn2C)c2ccnc(-c3ccn[nH]3)c2n1 (stereo not given) + COC1C(OC(N)=O)C(O)C(Oc2ccc3c(O)c(NC(=O)c4ccc(O)c(CC=C(C)C)c4)c(=O)oc3c2C)OC1(C)C	1.0
Nc1ccn(C2OC(CO)C(O)C2(F)F)c(=O)n1 (stereo not given) + COC1C(OC(N)=O)C(O)C(Oc2ccc3c(O)c(NC(=O)c4ccc(O)c(CC=C(C)C)c4)c(=O)oc3c2C)OC1(C)C	1.0

* * *

system: 299254-011-R-J1-PDC complex spheroid viability; test: Anticancer human tumor 299254-011-R-J1-PDC cell line growth inhibition [POLQ]; settings: curve of first compound; second compound 3.16 µM;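 further: spheroids exposed to drugs for one week before measurement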
IC50 by entry:
Result Type: IC50 (µM)

Molecule	Output Unit	Quantitative Result
COc1cccc2c1C(=O)c1c(O)c3c(c(O)c1C2=O)CC(O)(C(=O)CO)CC3OC1CC(N)C(O)C(C)O1 (centres undefined) + COC1C(OC(N)=O)C(O)C(Oc2ccc3c(O)c(NC(=O)c4ccc(O)c(CC=C(C)C)c4)c(=O)oc3c2C)OC1(C)C	µM	0.826
CC1COCCN1c1cc(C2(S(C)(=N)=O)CC2)nc(-c2ccnc3[nH]ccc23)n1 (centres undefined) + COC1C(OC(N)=O)C(O)C(Oc2ccc3c(O)c(NC(=O)c4ccc(O)c(CC=C(C)C)c4)c(=O)oc3c2C)OC1(C)C	µM	7.19

* * *

Measured viability, T/C by item
system: 299254-011-R-J1-PDC complex spheroid viability; assay: Anticancer human tumor 299254-011-R-J1-PDC cell line growth inhibition [POLQ]; conditions: second compound 0.1 µM; first compound 0.00316 µM; stronger effect = lower value;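 further: spheroids exposed to drugs for one week before measurement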;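 on viability, T/C: percent viability relative to DMSO vehicle control taken as 100%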

Compound	Output Unit	viability, T/C
Cn1ncnc1[C@H]1c2n[nH]c(=O)c3cc(F)cc(c23)N[C@@H]1c1ccc(F)cc1 + Nc1ccc(C#CCN(C(=O)Cc2ncc(C(F)(F)F)cc2C(F)(F)F)c2ccc(F)cc2)nn1	%	111
CC[C@@]1(O)C(=O)OCc2c1cc1n(c2=O)Cc2cc3c(CN(C)C)c(O)ccc3nc2-1 + Nc1ccc(C#CCN(C(=O)Cc2ncc(C(F)(F)F)cc2C(F)(F)F)c2ccc(F)cc2)nn1	%	105
Cn1ncnc1[C@H]1c2n[nH]c(=O)c3cc(F)cc(c23)N[C@@H]1c1ccc(F)cc1 + Cc1cccc(N(C)C(=O)C2C(O)CCN2c2nc(C)cc(C(F)(F)F)c2C#N)c1	%	117
C=CCn1c(=O)c2cnc(Nc3ccc(N4CCN(C)CC4)cc3)nc2n1-c1cccc(C(C)(C)O)n1 + Nc1ccc(C#CCN(C(=O)Cc2ncc(C(F)(F)F)cc2C(F)(F)F)c2ccc(F)cc2)nn1	%	101
COc1cccc(OCCCN)c1-c1cc(Nc2cnc(C#N)cn2)n[nH]1 + Cc1cccc(N(C)C(=O)C2C(O)CCN2c2nc(C)cc(C(F)(F)F)c2C#N)c1	%	92.7
